- system: UniProt:P30989
- runDescription: NTR1 dose response, high-content imaging beta-arrestin-GFP assay in NTR1-U2OS cells
- Assay type: cell-based
- reportedConditions: read-out: EC50
- Source text: The cell lines utilized in the high-content imaging assays, which include the NTR1-, NTR2-, and GPR35-U2OS osteosarcomas, were obtained from the laboratory of Dr. Lawrence Barak at the Duke University Medical Center. […]
measuredAttribute: EC50

[[record]]
inputsmiles = "COc1ccccc1C1CCN(c2nc(C3CC3)nc3ccc(N4CCC(OC)CC4)cc23)CC1"
result = "2 to 10 µM"

[[record]]
inputsmiles = "CN(C)c1ccccc1C1CCN(c2nc(C3(C(F)(F)F)CC3)nc3ccc(N(C)CCN4CCOCC4)cc23)CC1"
result = "> 10 µM"


In: Any idea what EC50 was measured for `CCCN(C)C(=O)Cc1c(C)nc(C2CC2)nc1N1CCC(c2ccccc2OC)CC1` ?
Out: > 10 µM

In: Any idea what EC50 was measured for `CN(CCO)c1ccc2nc(C3(C)CC3)nc(N3CCC(c4ccccc4N4CCC4)CC3)c2c1` ?
Out: 2 to 10 µM

In: Any idea what EC50 was measured for `CCCN(C)c1cc2c(N3CCC(c4ccccc4OC)CC3)nc(C3CC3)nc2cc1F` ?
Out: 2 to 10 µM

In: Any idea what EC50 was measured for `COc1cc(F)ccc1C1CCN(c2nc(C3CC3)nc3cc(Cl)c(N(C)CCO)cc23)CC1` ?
Out: > 10 µM

In: Any idea what EC50 was measured for `CN(C)c1ccccc1C1CCN(c2nc(C3CC3)nc3cc(Cl)c(N(C)CCO)cc23)CC1` ?
Out: 2 to 10 µM

In: Any idea what EC50 was measured for `COc1ccccc1C1CCN(c2nc(C3CC3)nc3cnc(N(C)CCO)cc23)CC1` ?
Out: < 0.5 µM

====

Parameter EC50: see the listing below.
- system: neurotensin receptor 1 (NTR1) (Homo sapiens (Human))
- runDescription: NTR1 dose response, high-content imaging beta-arrestin-GFP assay in NTR1-U2OS cells
- Assay type: cell-based
- reportedConditions: read-out: EC50
- From the text: The cell lines utilized in the high-content imaging assays, which include the NTR1-, NTR2-, and GPR35-U2OS osteosarcomas, were obtained from the laboratory of Dr. Lawrence Barak at the Duke University Medical Center. […]

[[record]]
molecule = "COc1ccccc1C1CCN(c2nc(C3(F)CCC3)nc3cnc(N4CC[C@@H](O)C4)cc23)CC1 [Example 199]"
measuredattribute = "EC50"
result = "2000 to 10000 nM"

[[record]]
molecule = "CN(CCN1CCOCC1)c1ccc2nc(C3CC3)nc(N3CCC(c4ccccc4N4CCC4)CC3)c2c1 [Example 8]"
measuredattribute = "EC50"
result = "500 to 2000 nM"

[[record]]
molecule = "COc1ccccc1C1CCN(c2nc(C3CC3)nc3ccc(N4CC[C@@H](OC)C4)cc23)CC1 [Example 176]"
measuredattribute = "EC50"
result = "500 to 2000 nM"

[[record]]
molecule = "CN(C)c1ccccc1C1CCN(c2nc(C3(C)CCC3)nc3ccc(N(C)CCN4CCOCC4)cc23)CC1 [Example 67]"
measuredattribute = "EC50"
result = "> 10000 nM"

[[record]]
molecule = "CCCN(C)c1cc2c(N3CCC(c4ccccc4N4CCC4)CC3)nc(C3CC3)nc2cc1F [Example 106]"
measuredattribute = "EC50"
result = "> 10000 nM"


In: Missing value: EC50, neurotensin receptor 1 (NTR1) (Homo sapiens (Human)), entry COc1cc(F)ccc1C1CCN(c2nc(C3CC3)nc3ccc(N(C)CCO)cc23)CC1 [Example 108] . Fill in?
Out: 500 to 2000 nM

In: Missing value: EC50, neurotensin receptor 1 (NTR1) (Homo sapiens (Human)), entry CCOC(=O)CN(C)C1CCN(c2ccc3nc(C4CC4)nc(N4CCC(c5ccccc5OC)CC4)c3c2)CC1 [Example 93] . Fill in?
Out: > 10000 nM

In: Missing value: EC50, neurotensin receptor 1 (NTR1) (Homo sapiens (Human)), entry CCCN(C)c1cccc2nc(C3CC3)nc(N3CCC(c4ccccc4OC)CC3)c12 [Example 131] . Fill in?
Out: 2000 to 10000 nM

In: Missing value: EC50, neurotensin receptor 1 (NTR1) (Homo sapiens (Human)), entry CN(C)c1ccccc1C1CCN(c2nc(C3(F)CCC3)nc3ccc(N(C)CCN4CCOCC4)cc23)CC1 [Example 62] . Fill in?
Out: 500 to 2000 nM

In: Missing value: EC50, neurotensin receptor 1 (NTR1) (Homo sapiens (Human)), entry COc1ccccc1C1CCN(c2nc(C3CC3)nc3ccc(N4CC[C@@H](O)C4)cc23)CC1 [Example 81] . Fill in?
Out: < 500 nM

In: Missing value: EC50, neurotensin receptor 1 (NTR1) (Homo sapiens (Human)), entry COc1ccccc1C1CCN(c2nc(C3CC3)nc3ccc(N(C)CCO)c(C)c23)CC1 [Example 126] . Fill in?
Out: 500 to 2000 nM

In: Missing value: EC50, neurotensin receptor 1 (NTR1) (Homo sapiens (Human)), entry CN(CCO)c1ccc2nc(C3(F)CC3)nc(N3CCC(C4CCCCC4)CC3)c2c1 [Example 139] . Fill in?
Out: > 10000 nM

====

Parameter EC50: see the listing below.
- system: UniProt:P30989
- runDescription: NTR1 dose response, high-content imaging beta-arrestin-GFP assay in NTR1-U2OS cells
- Type: cell-based
- reportedConditions: read-out: EC50

Sample answers from the record:
[[record]]
molecule = "COCCN(C)c1ccc2nc(C3(C)CC3)nc(N3CCC(c4ccccc4OC)CC3)c2c1"
result = "2 to 10 µM"

[[record]]
molecule = "COc1ccccc1C1CCN(c2nc(C3CC3)nc3ccc(N(C)CCO)c(F)c23)CC1 [Example 167]"
result = "0.5 to 2 µM"

[[record]]
molecule = "COc1ccncc1C1CCN(c2nc(C3(F)CC3)nc3ccc(N(C)CCO)cc23)CC1"
result = "2 to 10 µM"

[[record]]
molecule = "COCCN(C)c1ccc2nc(-c3ccccc3)nc(N3CCC(c4ccccc4OC)CC3)c2c1"
result = "> 10 µM"

[[record]]
molecule = "COc1ccccc1C1CCN(c2nc(NC3CCC3)nc3ccc(N(C)CCO)cc23)CC1"
result = "> 10 µM"

[[record]]
molecule = "CCCN(C)c1ccc2nc(N(C)C)nc(N3CCC(c4ccccc4OC)CC3)c2c1"
result = "> 10 µM"

[[record]]
molecule = "CCCN(C)c1ccc2nc(-c3ccccc3)nc(N3CCC(c4ccccc4OC)CC3)c2c1"
result = "> 10 µM"

[[record]]
molecule = "COc1ccccc1C1CCN(c2nc(C3CC3)nc3c(N(C)CCN4CCOCC4)cccc23)CC1"
result = "> 10 µM"

[[record]]
molecule = "COc1ccccc1C1CCN(c2nc(C3CC3)nc3cnc(N(C)CCN4CCOCC4)cc23)CC1 [Example 194]"
result = "0.5 to 2 µM"

[[record]]
molecule = "CCCN(C)c1ccc2nc(C3CC3)nc(NC3CCN(c4ccccc4OC)C3)c2c1 (stereo not drawn)"
result = "> 10 µM"


In: Any idea what EC50 was measured for `COc1ccccc1C1CCN(c2nc(C3(C)CC3)nc3ccc(N(C)CCN4CCCC4)cc23)CC1` ?
Out: 2 to 10 µM

In: Any idea what EC50 was measured for `CN(CCO)c1cc2c(N3CCC(c4ccccc4N4CCC4)CC3)nc(C3CC3)nc2cc1Cl` ?
Out: 2 to 10 µM

In: Any idea what EC50 was measured for `CN(C)c1ccccc1C1CCN(c2nc(C3(F)CCC3)nc3ccc(N(C)CCO)cc23)CC1` ?
Out: < 0.5 µM

In: Any idea what EC50 was measured for `COc1ccccc1C1CCN(c2nc(C3CC3)nc(C)c2CC(=O)N(C)C)CC1` ?
Out: > 10 µM

In: Any idea what EC50 was measured for `COCCN(C)c1ccc2nc(C3(C)CC3)nc(N3CCC(c4ccccc4N4CCC4)CC3)c2c1` ?
Out: > 10 µM

In: Any idea what EC50 was measured for `COc1ccccc1C1CCN(c2nc(C3(F)CC3)nc3c(Cl)cc(N(C)CCO)cc23)CC1` ?
Out: < 0.5 µM

In: Any idea what EC50 was measured for COc1ccccc1C1CCN(c2nc(C3CC3)nc3ccc(N4CC[C@@H](OC)C4)cc23)CC1 [Example 83] ?
Out: < 0.5 µM

In: Any idea what EC50 was measured for COc1ccccc1N1CCC(Nc2nc(C3CC3)nc3ccc(N(C)CCO)cc23)C1 (stereo not drawn) ?
Out: > 10 µM

====

- system: neurotensin receptor 1 (NTR1) (Homo sapiens (Human), UniProt P30989)
- Sequence (P30989 whole entry, species assumed): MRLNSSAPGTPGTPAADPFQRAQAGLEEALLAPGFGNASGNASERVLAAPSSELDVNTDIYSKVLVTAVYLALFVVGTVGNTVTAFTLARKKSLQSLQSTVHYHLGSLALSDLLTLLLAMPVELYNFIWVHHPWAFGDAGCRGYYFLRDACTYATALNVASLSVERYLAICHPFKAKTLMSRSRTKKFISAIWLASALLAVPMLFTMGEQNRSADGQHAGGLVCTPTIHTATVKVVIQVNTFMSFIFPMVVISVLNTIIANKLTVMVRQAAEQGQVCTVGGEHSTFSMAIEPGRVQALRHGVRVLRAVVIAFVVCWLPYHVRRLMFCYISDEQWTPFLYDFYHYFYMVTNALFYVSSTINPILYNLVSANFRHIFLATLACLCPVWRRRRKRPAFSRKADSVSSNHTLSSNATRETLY
- runDescription: NTR1 dose response, high-content imaging beta-arrestin-GFP assay in NTR1-U2OS cells
- Assay type: cell-based
- reportedConditions: read-out: EC50
- Description: The cell lines utilized in the high-content imaging assays, which include the NTR1-, NTR2-, and GPR35-U2OS osteosarcomas, were obtained from the laboratory of Dr. Lawrence Barak at the Duke University Medical Center. […]
measuredAttribute: EC50

Sample answers from the record:
[[record]]
molecule = "CN(C)c1ccccc1C1CCN(c2nc(C3CCCC3)nc3ccc(N(C)CCN4CCOCC4)cc23)CC1 [Example 74]"
measuredattribute = "EC50"
result = "2 to 10 µM"

[[record]]
molecule = "COc1ccccc1C1CCN(c2nc(C3CC3)nc3ccc(N4CC[C@H](OC)C4)cc23)CC1 [Example 174]"
measuredattribute = "EC50"
result = "0.5 to 2 µM"

[[record]]
molecule = "COc1nccnc1C1CCN(c2nc(C3(F)CC3)nc3c(F)cc(N(C)CCO)cc23)CC1 [Example 213]"
measuredattribute = "EC50"
result = "0.5 to 2 µM"

[[record]]
molecule = "COc1ccccc1C1CCN(c2nc(C3(C)CCC3)nc3ccc(N(C)CCO)cc23)CC1 [Example 70]"
measuredattribute = "EC50"
result = "0.5 to 2 µM"

[[record]]
molecule = "COc1ccccc1C1CCN(c2nc(C3CC3)nc3cnc(N(C)CCN4CCOCC4)cc23)CC1 [Example 134]"
measuredattribute = "EC50"
result = "0.5 to 2 µM"


In: Any idea what EC50 was measured for COc1ccccc1C1CCN(c2nc(C3(C)CC3)nc3ccc(N(C)CCN4CCOCC4)cc23)CC1 [Example 34] ?
Out: 2 to 10 µM

In: Any idea what EC50 was measured for COCCN(C)c1ccc2nc(C3CC3)nc(N3CCC(c4ccccc4N4CCC4)CC3)c2c1 [Example 7] ?
Out: 2 to 10 µM

In: Any idea what EC50 was measured for COc1ccccc1C1CCN(c2nc(C3(C)CCC3)nc3ccc(N(C)CCN4CCOCC4)cc23)CC1 [Example 69] ?
Out: 0.5 to 2 µM

This collection of values is drawn from patent US10118902B2.
